test: In vitro inhibition of IgE antibody production in human PBMC cultured with alpha-CD40, IL-4 and IL-10 at 3 uM concentration […]; format: functional
readout-label: Suppression (%)

{"columns": ["sample-smiles", "unit-info", "recorded-measurement"],
 "data": [
  ["O=C(O)c1ccc(Oc2ccc3ccccc3c2)cc1", "%", -4.6],
  ["O=C(O)c1cccc(NC(=O)c2ccc(Oc3ccc4ccccc4c3)cc2)c1", "%", -29.6],
  ["O=C(O)c1ccc(NC(=O)c2ccc(Oc3ccc4ccccc4c3)cc2)cc1", "%", 6.4],
  ["CN(C(=O)c1ccc(Oc2ccc3ccccc3c2)cc1)c1ccccc1C(=O)O", "%", -27.7],
  ["O=C(Nc1ccccc1-c1nn[nH]n1)c1ccc(Oc2ccc3ccccc3c2)cc1", "%", -74.5],
  ["O=C(Nc1ccccc1C(=O)O)c1cccc(Oc2ccc3ccccc3c2)c1", "%", -26.2],
  ["O=C(O)c1ccccc1C(=O)Nc1ccc(Oc2ccc3ccccc3c2)cc1", "%", -11.8]
]}

###

experiment: In vitro inhibition of IgE antibody production in human PBMC cultured with alpha-CD40, IL-4 and IL-10 at 3 uM concentration; assay type: functional
# key: entry, value: Suppression

{"columns": ["compound", "Suppression"],
 "data": [
  ["O=C(Nc1ccccc1C(=O)O)c1ccc(Oc2ccccc2)cc1", "46%"],
  ["O=C(Nc1ccccc1C(=O)O)c1ccc(Oc2ccc3ccccc3c2)c([N+](=O)[O-])c1", "93%"],
  ["O=C(Nc1ccccc1C(=O)O)c1ccc(Cc2ccc3ccccc3c2)cc1", "9.5%"],
  ["NC(=O)c1ccccc1NC(=O)c1ccc(Oc2ccc3ccccc3c2)cc1", "8.6%"],
  ["Nc1ccccc1NC(=O)c1ccc(Oc2ccc3ccccc3c2)cc1", "31.6%"],
  ["O=C(Nc1ccccc1C(=O)O)c1ccc(C(=O)c2ccc3ccccc3c2)cc1", "10.3%"],
  ["O=C(Nc1ccccc1C(=O)O)c1ccc(Sc2ccc3ccccc3c2)cc1", "25.8%"],
  ["O=C(Nc1ccccc1C(=O)O)c1ccc(Oc2ccc3ccccc3c2)cc1", "64.8%"],
  ["CC(C(=O)Nc1ccccc1C(=O)O)c1ccc(Oc2ccc3ccccc3c2)cc1 (stereo not given)", "8.7%"],
  ["O=C(Nc1ccccc1C(=O)O)c1ccc(Oc2ccc3cc(O)ccc3c2)cc1", "76.6%"]
]}

###

assay: In vitro inhibition of IgG antibody production in human PBMC cultured with alpha-CD40, IL-4 and IL-10 at 3 uM concentration […]; format: functional
readout-label: Suppression (%)

{"columns": ["compound", "recorded-measurement"],
 "data": [
  ["CC(C)(C(=O)Nc1ccccc1C(=O)O)c1ccc(Oc2ccc3ccccc3c2)cc1", -5.4],
  ["O=C(Nc1ccccc1-c1nn[nH]n1)c1ccc(Oc2ccc3ccccc3c2)cc1", -18.7],
  ["O=C(O)c1ccccc1NCc1ccc(Oc2ccc3ccccc3c2)cc1", -4.5],
  ["O=C(Nc1ccccc1C(=O)O)c1ccc(Oc2ccc3cc(O)ccc3c2)cc1", -8.7],
  ["O=C(Nc1ccccc1C(=O)O)c1cccc(Oc2ccc3ccccc3c2)c1", -16],
  ["O=C(Nc1ccccc1C(=O)O)c1ccc(Oc2ccccc2)cc1", -1.8],
  ["O=C(Nc1ccccc1C(=O)O)c1ccc(Oc2ccc3ccccc3c2)cc1", -16.9],
  ["CC(C(=O)Nc1ccccc1C(=O)O)c1ccc(Oc2ccc3ccccc3c2)cc1 (stereo not given)", -15.9],
  ["O=C(CCc1ccc(Oc2ccc3ccccc3c2)cc1)Nc1ccccc1C(=O)O", -41.2],
  ["O=C(Nc1ccccc1C(=O)O)c1ccc(Sc2ccc3ccccc3c2)cc1", -2.8],
  ["O=C(Nc1ccccc1C(=O)O)c1ccc(COc2ccc3ccccc3c2)cc1", -16.1],
  ["O=C(CCCC1CC1/C=C/c1ccc2ccccc2c1)Nc1ccccc1C(=O)O (stereo not given)", -0.5],
  ["O=C(O)c1ccc(Oc2ccc3ccccc3c2)cc1", -4.8],
  ["O=C(O)c1ccccc1C(=O)Nc1ccc(Oc2ccc3ccccc3c2)cc1", -23.1],
  ["O=C(Nc1ccccc1C(=O)O)c1ccc(Cc2ccc3ccccc3c2)cc1", -21.1]
]}

###

experiment: In vitro inhibition of IgG antibody production in human PBMC cultured with alpha-CD40, IL-4 and IL-10 at 3 uM concentration; assay type: functional
# key: entry, value: Suppression

{"columns": ["sample-smiles", "Suppression [%]"],
 "data": [
  ["O=C(O)c1cccc(NC(=O)c2ccc(Oc3ccc4ccccc4c3)cc2)c1", 2.5],
  ["CN(C(=O)c1ccc(Oc2ccc3ccccc3c2)cc1)c1ccccc1C(=O)O", 10.1],
  ["O=C(Cc1ccc(Oc2ccc3cc(OCc4ccccc4)ccc3c2)cc1)Nc1ccccc1C(=O)O", 91.7]
]}
